Measured values drawn from paper PMC10709440 for this set.

Target: Drosophila OR49b (Drosophila melanogaster, UniProt Q9V6H2)
Construct: expressed in transfected cells
Sequence (Q9V6H2 whole entry, one chain of several): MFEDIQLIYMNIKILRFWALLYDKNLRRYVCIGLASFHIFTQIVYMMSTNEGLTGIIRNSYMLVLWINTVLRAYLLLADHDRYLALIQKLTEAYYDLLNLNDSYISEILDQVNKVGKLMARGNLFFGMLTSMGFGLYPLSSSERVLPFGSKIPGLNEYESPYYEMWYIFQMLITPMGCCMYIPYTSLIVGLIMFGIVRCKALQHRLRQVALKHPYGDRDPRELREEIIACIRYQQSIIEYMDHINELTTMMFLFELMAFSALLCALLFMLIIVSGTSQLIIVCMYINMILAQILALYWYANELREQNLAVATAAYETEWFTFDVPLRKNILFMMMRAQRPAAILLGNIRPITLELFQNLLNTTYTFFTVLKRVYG
Test: cell-based
Details: OR49b cell line, VOC concentration 100 μM
measured_parameter: OR49b response (VUAA1-normalized) at 100 μM

[
  {
    "compound": "CCCCCCCCC=O",
    "test_value": 0.00
  },
  {
    "compound": "Cc1ccccc1",
    "test_value": 0.44
  },
  {
    "compound": "Cc1cccc(C)c1",
    "test_value": 0.27
  },
  {
    "compound": "CC1=CCC23CC1C(C)(C)C2CCC3C (stereo not shown)",
    "test_value": 0.00
  },
  {
    "compound": "Cc1ccccc1C",
    "test_value": 0.64
  },
  {
    "compound": "CCCOC(C)=O [propyl acetate]",
    "test_value": 0.00
  },
  {
    "compound": "C=CC(C)(O)CCC=C(C)C (stereo not shown)",
    "test_value": 0.00
  }
]

* * *

Molecular target: Drosophila OR85b (Drosophila melanogaster, UniProt Q9VHQ7)
Construct: expressed in transfected cells
Sequence (Q9VHQ7 whole entry, one chain of several): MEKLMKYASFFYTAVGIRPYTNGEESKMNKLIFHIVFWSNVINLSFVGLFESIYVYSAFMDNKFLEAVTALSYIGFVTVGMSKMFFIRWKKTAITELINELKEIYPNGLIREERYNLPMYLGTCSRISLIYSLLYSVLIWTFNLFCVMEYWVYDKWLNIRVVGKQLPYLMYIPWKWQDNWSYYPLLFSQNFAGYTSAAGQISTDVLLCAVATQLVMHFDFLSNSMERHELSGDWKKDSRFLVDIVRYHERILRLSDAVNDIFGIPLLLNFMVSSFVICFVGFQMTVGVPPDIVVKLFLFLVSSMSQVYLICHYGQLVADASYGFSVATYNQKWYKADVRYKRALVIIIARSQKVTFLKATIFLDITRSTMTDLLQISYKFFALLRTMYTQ
Experiment: Calcium ion fluorescence (GCaMP6) assay, OR85b stable HEK293 cell line
Format: cell-based
Details: EC50, AVERAGE, arithmetic average of 5 replicate EC50
measured_parameter: EC50 (µM)

[
  {
    "smiles_representation": "CCCCCC(C)=O",
    "system": "Drosophila OR85b (Drosophila melanogaster, UniProt Q9VHQ7)",
    "measured_parameter": "EC50",
    "test_value": 110
  }
]

* * *

Molecular target: Drosophila OR10a (Drosophila melanogaster, UniProt Q9VYZ1)
Construct: expressed in transfected cells
Sequence (Q9VYZ1 whole entry): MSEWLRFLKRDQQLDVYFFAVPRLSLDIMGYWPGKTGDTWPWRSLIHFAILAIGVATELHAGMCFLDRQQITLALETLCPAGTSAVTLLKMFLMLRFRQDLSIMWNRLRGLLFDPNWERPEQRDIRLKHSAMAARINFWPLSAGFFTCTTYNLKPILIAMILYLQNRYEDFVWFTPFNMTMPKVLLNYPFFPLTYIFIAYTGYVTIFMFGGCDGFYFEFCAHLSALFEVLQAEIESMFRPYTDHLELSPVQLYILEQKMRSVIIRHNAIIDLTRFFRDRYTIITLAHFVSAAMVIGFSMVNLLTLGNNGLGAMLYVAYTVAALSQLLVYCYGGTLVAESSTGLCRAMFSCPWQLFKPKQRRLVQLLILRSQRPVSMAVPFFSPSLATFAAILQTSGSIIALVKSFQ
Sequence (Q9VNB5 whole entry partner): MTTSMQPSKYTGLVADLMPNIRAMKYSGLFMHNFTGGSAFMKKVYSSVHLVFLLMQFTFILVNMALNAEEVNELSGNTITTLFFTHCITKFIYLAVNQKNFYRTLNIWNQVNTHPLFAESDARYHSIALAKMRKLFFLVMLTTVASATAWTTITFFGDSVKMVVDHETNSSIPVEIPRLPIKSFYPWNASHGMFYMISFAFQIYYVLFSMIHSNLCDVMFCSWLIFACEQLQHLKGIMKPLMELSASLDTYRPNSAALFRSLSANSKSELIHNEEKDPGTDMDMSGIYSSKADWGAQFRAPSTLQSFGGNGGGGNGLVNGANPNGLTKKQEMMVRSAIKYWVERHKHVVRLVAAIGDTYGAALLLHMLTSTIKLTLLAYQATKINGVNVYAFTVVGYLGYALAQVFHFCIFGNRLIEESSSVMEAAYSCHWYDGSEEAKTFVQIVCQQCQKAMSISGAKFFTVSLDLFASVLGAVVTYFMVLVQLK
Assay: Calcium ion fluorescence (GCaMP6) assay, OR10a stable HEK293 cell line
Type: cell-based
Settings: ligand concentration 10 (unit not given); threshold 0.05, below shown as 0
Procedure: These VUAA1 normalized ∆F values were used to compare the different receptors and ligands. The concentration-dependent effect of the reference ligands on their cognate cell lines was examined in more detail. Twelve different ligand concentrations were measured on each cell line in an overall 0.01 μM to 100 μM concentration range with 5 repetitions with three technical replicates each time. […]

[
  {
    "molecule": "CCOC(=O)c1ccccc1 [ethyl benzoate]",
    "DF norm AVERAGE OR10a": 0.4538
  },
  {
    "molecule": "CC(=O)c1ccccc1 [acetophenone]",
    "DF norm AVERAGE OR10a": 0
  },
  {
    "molecule": "COC(=O)c1ccccc1O [methyl salicylate]",
    "DF norm AVERAGE OR10a": 0.5549
  },
  {
    "molecule": "CC(=O)OCCC(C)C [isopentyl acetate]",
    "DF norm AVERAGE OR10a": 0.1921
  },
  {
    "molecule": "CC1=CC[C@@H](C(C)(C)O)CC1 [alpha-terpineol]",
    "DF norm AVERAGE OR10a": 0
  },
  {
    "molecule": "CCCCCOC(C)=O [pentyl acetate]",
    "DF norm AVERAGE OR10a": 0.07718
  },
  {
    "molecule": "CCOC(=O)CC [ethyl propionate]",
    "DF norm AVERAGE OR10a": 0
  }
]

* * *

Biological target: Drosophila OR13a (Drosophila melanogaster, UniProt Q9VXL0)
Construct: expressed in transfected cells
Sequence (Q9VXL0 whole entry, one chain of several): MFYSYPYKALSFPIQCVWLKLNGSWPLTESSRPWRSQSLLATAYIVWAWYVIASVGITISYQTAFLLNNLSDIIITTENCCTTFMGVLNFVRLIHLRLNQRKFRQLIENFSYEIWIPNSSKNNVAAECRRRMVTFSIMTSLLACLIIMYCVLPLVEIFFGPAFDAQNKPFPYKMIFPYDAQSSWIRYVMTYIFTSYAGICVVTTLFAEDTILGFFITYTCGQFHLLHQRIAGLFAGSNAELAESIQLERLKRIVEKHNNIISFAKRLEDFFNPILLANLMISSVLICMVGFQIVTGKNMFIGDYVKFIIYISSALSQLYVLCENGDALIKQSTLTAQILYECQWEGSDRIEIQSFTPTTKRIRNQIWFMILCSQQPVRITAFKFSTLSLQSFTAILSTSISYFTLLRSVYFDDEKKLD
Experiment: Calcium ion fluorescence (GCaMP6) assay, OR13a stable HEK293 cell line
Type: cell-based
Conditions: ligand concentration 100 (unit not given); threshold 0.05, below shown as 0
Procedure: These VUAA1 normalized ∆F values were used to compare the different receptors and ligands. The concentration-dependent effect of the reference ligands on their cognate cell lines was examined in more detail. Twelve different ligand concentrations were measured on each cell line in an overall 0.01 μM to 100 μM concentration range with 5 repetitions with three technical replicates each time. […]
measured_parameter: DF norm AVERAGE OR13a

[
  {
    "compound": "COC(=O)c1ccccc1O [methyl salicylate]",
    "test_value": 0.213
  },
  {
    "compound": "CCCCOC(=O)CC [butyl propanoate]",
    "test_value": 0
  },
  {
    "compound": "CC/C=C/CCO",
    "test_value": 0.07115
  },
  {
    "compound": "C=C(C)[C@H]1CC=C(C)CC1",
    "test_value": 0
  },
  {
    "compound": "CC(C)=CCC/C(C)=C/CC/C(C)=C/CO",
    "test_value": 0
  },
  {
    "compound": "C=CCc1ccc(O)c(OC)c1",
    "test_value": 0
  },
  {
    "compound": "CCCCOC(C)=O [butyl acetate]",
    "test_value": 0
  },
  {
    "compound": "Cc1ccc(C)cc1",
    "test_value": 0
  },
  {
    "compound": "CCCOC(C)=O [propyl acetate]",
    "test_value": 0
  },
  {
    "compound": "CC1=CC[C@@H](C(C)(C)O)CC1",
    "test_value": 0
  },
  {
    "compound": "OCCc1ccccc1",
    "test_value": 0
  },
  {
    "compound": "C=CC(C)(O)CCC=C(C)C (stereo not shown)",
    "test_value": 0
  },
  {
    "compound": "CCCCCOC(C)=O [pentyl acetate]",
    "test_value": 0
  }
]

* * *

Molecular target: Drosophila OR71a (Drosophila melanogaster)
Construct: expressed in transfected cells
Sequence (Q9VUK5 whole entry): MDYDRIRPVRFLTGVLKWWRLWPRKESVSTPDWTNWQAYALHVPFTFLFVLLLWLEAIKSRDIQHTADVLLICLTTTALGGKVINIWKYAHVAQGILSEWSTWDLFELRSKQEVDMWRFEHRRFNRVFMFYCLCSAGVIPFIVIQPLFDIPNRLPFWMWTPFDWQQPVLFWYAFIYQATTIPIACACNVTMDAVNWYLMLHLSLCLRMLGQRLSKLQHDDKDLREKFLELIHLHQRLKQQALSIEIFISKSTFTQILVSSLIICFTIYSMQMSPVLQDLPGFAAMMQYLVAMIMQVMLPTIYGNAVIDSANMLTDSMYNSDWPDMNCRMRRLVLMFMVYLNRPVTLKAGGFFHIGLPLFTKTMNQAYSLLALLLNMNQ
Sequence (Q9VNB5 whole entry partner): as the sequence (Q9VNB5 whole entry partner) above
Assay: Calcium ion fluorescence (GCaMP6) assay, OR71a stable HEK293 cell line
Assay type: cell-based
Conditions: HEK293, read-out: OR71a response (VUAA1-normalized response)
Procedure: These VUAA1 normalized ∆F values were used to compare the different receptors and ligands. The concentration-dependent effect of the reference ligands on their cognate cell lines was examined in more detail. Twelve different ligand concentrations were measured on each cell line in an overall 0.01 μM to 100 μM concentration range with 5 repetitions with three technical replicates each time. […]

[
  {
    "molecule": "Cc1ccc(O)cc1",
    "activation at 100 µM (%)": 0
  },
  {
    "molecule": "CCCCCC(C)=O",
    "activation at 100 µM (%)": 5
  },
  {
    "molecule": "C=C1CC/C=C(\\C)CC[C@@H]2[C@@H]1CC2(C)C [(-)-trans-caryophyllene]",
    "activation at 100 µM (%)": 0
  },
  {
    "molecule": "CCOC(=O)CC [ethyl propionate]",
    "activation at 100 µM (%)": 0
  },
  {
    "molecule": "CC1=CC[C@@H](C(C)(C)O)CC1",
    "activation at 100 µM (%)": 0
  },
  {
    "molecule": "C=CC(O)CCCCC (stereo not drawn)",
    "activation at 100 µM (%)": 5.55
  }
]

* * *

Target: Drosophila OR47a (Drosophila melanogaster, UniProt P81921)
Construct: expressed in transfected cells
Sequence (P81921 whole entry, one chain of several): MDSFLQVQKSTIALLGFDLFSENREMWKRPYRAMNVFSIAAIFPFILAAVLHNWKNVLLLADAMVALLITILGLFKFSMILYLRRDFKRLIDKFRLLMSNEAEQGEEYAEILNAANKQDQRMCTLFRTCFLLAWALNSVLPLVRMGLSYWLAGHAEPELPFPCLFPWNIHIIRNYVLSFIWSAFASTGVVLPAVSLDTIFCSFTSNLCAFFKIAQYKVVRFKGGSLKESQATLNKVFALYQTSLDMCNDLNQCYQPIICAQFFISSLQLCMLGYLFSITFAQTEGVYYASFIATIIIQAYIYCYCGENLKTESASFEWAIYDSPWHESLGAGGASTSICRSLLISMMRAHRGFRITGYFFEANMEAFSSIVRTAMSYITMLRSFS
Test: Calcium ion fluorescence (GCaMP6) assay, OR47a stable HEK293 cell line
Type: cell-based
Conditions: ligand concentration 100 (unit not given); 0.05 threshold, values below shown as 0
measured_parameter: DF norm AVERAGE OR47a

[
  {
    "compound": "CC/C=C\\CCOC(C)=O [z3-hexenyl acetate]",
    "test_value": 0.7586
  },
  {
    "compound": "CCCCCCCCCCC [undecane]",
    "test_value": 0
  },
  {
    "compound": "CCCCCCCCCCCCCC [tetradecane]",
    "test_value": 0
  },
  {
    "compound": "CC/C=C\\CCO [Z3-hexenol]",
    "test_value": 0.1005
  },
  {
    "compound": "CC1=CCC23CC1C(C)(C)C2CCC3C (stereo not drawn) [α-funebrene]",
    "test_value": 0
  },
  {
    "compound": "Cc1ccccc1 [toluene]",
    "test_value": 0
  },
  {
    "compound": "C=Cc1ccccc1 [styrene]",
    "test_value": 0
  }
]

* * *

Molecular target: Drosophila OR98a (Drosophila melanogaster)
Construct: expressed in transfected cells
Sequence (Q9VAZ3 whole entry, one chain of several): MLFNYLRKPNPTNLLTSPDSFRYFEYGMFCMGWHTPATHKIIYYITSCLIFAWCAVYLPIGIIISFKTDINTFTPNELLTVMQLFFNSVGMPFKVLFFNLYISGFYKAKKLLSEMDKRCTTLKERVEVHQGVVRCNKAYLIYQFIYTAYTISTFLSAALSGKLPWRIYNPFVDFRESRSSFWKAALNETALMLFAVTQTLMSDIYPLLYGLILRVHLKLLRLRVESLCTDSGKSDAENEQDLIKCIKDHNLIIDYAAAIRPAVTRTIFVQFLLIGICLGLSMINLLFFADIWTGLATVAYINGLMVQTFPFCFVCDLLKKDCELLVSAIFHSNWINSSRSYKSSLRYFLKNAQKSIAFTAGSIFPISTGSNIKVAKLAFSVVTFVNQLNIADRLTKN
Assay: Calcium ion fluorescence (GCaMP6) assay, OR98a stable HEK293 cell line
Assay type: cell-based
Settings: cc. 10 µM; OR98a cell line; average of biological replicates; fraction of VUAA1 response

[
  {
    "compound": "C=C(C)C1CCC2(C)OC2C1 (single isomer, unassigned; (+)) [(+)-limonene oxide]",
    "system": "Drosophila OR98a (Drosophila melanogaster)",
    "Average response": 0.00
  },
  {
    "compound": "CC(C)=CCC/C(C)=C/CC/C(C)=C/CO [e,e-farnesol]",
    "system": "Drosophila OR98a (Drosophila melanogaster)",
    "Average response": 0.07
  },
  {
    "compound": "CC/C=C/CCO [e3-hexenol]",
    "system": "Drosophila OR98a (Drosophila melanogaster)",
    "Average response": 0.00
  },
  {
    "compound": "C=C(C)[C@H]1CC=C(C)CC1 [limonene]",
    "system": "Drosophila OR98a (Drosophila melanogaster)",
    "Average response": 0.02
  },
  {
    "compound": "CC1=CCC[C@@]2(C)[C@@H]3CC[C@]12CC3(C)C [(−)-α-neoclovene]",
    "system": "Drosophila OR98a (Drosophila melanogaster)",
    "Average response": 0.00
  },
  {
    "compound": "CC/C=C\\CCO [Z3-hexenol]",
    "system": "Drosophila OR98a (Drosophila melanogaster)",
    "Average response": 0.17
  },
  {
    "compound": "C=C(C)[C@H]1CC=C(C)CC1 [(R)-(+)-limonene]",
    "system": "Drosophila OR98a (Drosophila melanogaster)",
    "Average response": 0.00
  },
  {
    "compound": "C=C1[C@H]2CC[C@@H]3[C@H]2C(C)(C)CCC[C@]13C [(+)-longifolene]",
    "system": "Drosophila OR98a (Drosophila melanogaster)",
    "Average response": 0.13
  }
]
